B1: Mineralocorticoid receptor, residues 600 to 675; numbered along this chain, P08235 (parent)
chain: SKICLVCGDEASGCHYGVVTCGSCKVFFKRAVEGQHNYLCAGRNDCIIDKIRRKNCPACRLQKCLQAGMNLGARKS

Variants of: B1
Assay: abundance fitness (aPCA) (normalised: wild type 0, dead -1); higher = more abundant; growth selection in yeast, the domain comes from the species named
Settings: Homo sapiens
Recorded abundance fitness determines the group label, using low (below -0.1), intermediate (-0.1 to below -0.03), high (-0.03 or more)

sequenceChange | qualitativeLabel
C64G | high
C24Q | low
F27R | low
N44W | intermediate
K2W | low
S12D | low
K54E | intermediate
V26M | intermediate
M69D | low
Q35R | high
N37I | intermediate
K63P | low
N44T | intermediate
I3V | low
L5W | low
G22W | intermediate
N37G | intermediate
C59F | low
R52K | intermediate
H15T | low
M69K | low
H15S | intermediate
S12V | low
G17T | intermediate
N44L | low
C4L | low
V18P | low
I3R | low
R43E | high
L5E | intermediate
K25C | high
R74V | high
K75M | high
K29L | intermediate
G72S | high
G17L | low
I47C | high
A58Q | high
T20F | low
S76H | intermediate
G17H | low
L5I | intermediate
K29H | high
I3C | low
G22T | low
C24D | low
D9L | low
A11M | low
Q62M | high
N44V | low
G17Q | intermediate
I48E | high
I47Y | low
C14A | high
H36N | high
I47E | high
Q35G | high
K2Q | high
L5M | low
C46R | low
S1W | low
N37S | intermediate
C64M | high
V6N | low
L39R | high
A58I | low
D45M | intermediate
A11Y | low
L61F | intermediate
N37Q | high
L61W | high
Q35D | high
C21Y | low
R52Y | low
Q62L | high
Y16F | intermediate
T20V | high
H36T | high
K29D | high
I47W | low
K25M | high
M69E | low
Y38F | high
A11G | intermediate
N37P | intermediate
R30P | high
